system: NCI-H841 complex tumor spheroid viability; assay: Anticancer human tumor NCI-H841 cell line growth inhibition; settings: second compound 0.0003 µM; first compound 10 µM; active = viability on the fitted dose curve at most 10% of control; inactive = the rest
Outcome (select one): y = active, n = inactive

Lookup: Given CC(C)n1c(=O)n(C)c2cnc3cc(F)c(-c4ccc(OCCCN5CCCCC5)nc4)cc3c21 + COc1cc2c(cc1O)CCNC21CSC2c3c(OC(C)=O)c(C)c4c(c3C(COC1=O)N1C(O)C3Cc5cc(C)c(OC)c(O)c5C(C21)N3C)OCO4 , state the outcome it received in this test.
Found: y

Lookup: Follow-up item: [2H]c1nc(C)nc([2H])c1-c1cc(NC[C@@H](C)c2cccc3c(C(=O)NC)ccnc23)ncn1 + COc1cc2c(cc1O)CCNC21CSC2c3c(OC(C)=O)c(C)c4c(c3C(COC1=O)N1C(O)C3Cc5cc(C)c(OC)c(O)c5C(C21)N3C)OCO4
Found: n

Lookup: Here is the next compound: CC1COCCN1c1cc(-c2ccnn2C)c2ccnc(-c3ccn[nH]3)c2n1 (centres undefined) + COc1cc2c(cc1O)CCNC21CSC2c3c(OC(C)=O)c(C)c4c(c3C(COC1=O)N1C(O)C3Cc5cc(C)c(OC)c(O)c5C(C21)N3C)OCO4
Found: y

Lookup: Would you kindly repeat that for Cc1cc(C)c(CNC(=O)c2cc(-c3ccc(CN4CCOCC4)cc3)cc3c2cnn3C2CCCC2)c(=O)[nH]1 + COc1cc2c(cc1O)CCNC21CSC2c3c(OC(C)=O)c(C)c4c(c3C(COC1=O)N1C(O)C3Cc5cc(C)c(OC)c(O)c5C(C21)N3C)OCO4 ?
Found: y

====

test system: NCI-H841 complex tumor spheroid viability; assay: Anticancer human tumor NCI-H841 cell line growth inhibition; conditions: second compound 0.003 µM; first compound 10 µM; hits give low values
I'd be grateful if you could share measured viability, T/C for these entries.
Could you give me the number in %? Just the number is fine.

Lookup: Query: viability, T/C; subject: CC(C)n1c(=O)n(C)c2cnc3cc(F)c(-c4ccc(OCCCN5CCCCC5)nc4)cc3c21 + COc1cc2c(cc1O)CCNC21CSC2c3c(OC(C)=O)c(C)c4c(c3C(COC1=O)N1C(O)C3Cc5cc(C)c(OC)c(O)c5C(C21)N3C)OCO4
Found: 0.15

Lookup: Ok, now Cc1cc(C)c(CNC(=O)c2cc(-c3ccc(CN4CCOCC4)cc3)cc3c2cnn3C2CCCC2)c(=O)[nH]1 + COc1cc2c(cc1O)CCNC21CSC2c3c(OC(C)=O)c(C)c4c(c3C(COC1=O)N1C(O)C3Cc5cc(C)c(OC)c(O)c5C(C21)N3C)OCO4
Found: 0.19

====

I'd be grateful if you could share measured viability, T/C for these entries.
tested on: NCI-H841 complex tumor spheroid viability; test: Anticancer human tumor NCI-H841 cell line growth inhibition; settings: second compound 30 pM; first compound 0.3 µM; hits give low values;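 also: spheroids exposed to compounds for 7 days before readout; 100% = DMSO vehicle control wells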
Express it in %; write the number only.

Lookup: Requested field: viability, T/C. Item: Cc1sc2c(c1C)C(c1ccc(Cl)cc1)=NC(CC(=O)Nc1ccc(O)cc1)c1nnc(C)n1-2 (centres undefined) + COc1cc2c(cc1O)CCNC21CSC2c3c(OC(C)=O)c(C)c4c(c3C(COC1=O)N1C(O)C3Cc5cc(C)c(OC)c(O)c5C(C21)N3C)OCO4
Found: 69.2

Lookup: Same question, Cn1ncnc1[C@H]1c2n[nH]c(=O)c3cc(F)cc(c23)N[C@@H]1c1ccc(F)cc1 + COc1cc2c(cc1O)CCNC21CSC2c3c(OC(C)=O)c(C)c4c(c3C(COC1=O)N1C(O)C3Cc5cc(C)c(OC)c(O)c5C(C21)N3C)OCO4 this time
Found: 71.3

Lookup: Same question, CNCc1ccc(-c2cc(-c3nc(-c4ccc(S(=O)(=O)C(C)C)cc4)cnc3N)on2)cc1 + COc1cc2c(cc1O)CCNC21CSC2c3c(OC(C)=O)c(C)c4c(c3C(COC1=O)N1C(O)C3Cc5cc(C)c(OC)c(O)c5C(C21)N3C)OCO4 this time
Found: 31.6

Lookup: And O=C(c1cc(Cc2n[nH]c(=O)c3ccccc23)ccc1F)N1CCN(C(=O)C2CC2)CC1 + COc1cc2c(cc1O)CCNC21CSC2c3c(OC(C)=O)c(C)c4c(c3C(COC1=O)N1C(O)C3Cc5cc(C)c(OC)c(O)c5C(C21)N3C)OCO4 ?
Found: 105

====

system: NCI-H841 complex tumor spheroid viability; test: Anticancer human tumor NCI-H841 cell line growth inhibition; details: second compound 0.0949 µM; first compound 1 µM; hits give low values;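 also: spheroids exposed to compounds for 7 days before readout; 100% = DMSO vehicle control wells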
For each entry below, report its viability, T/C value.

Lookup: So what's the measured viability, T/C for this one? [2H]c1nc(C)nc([2H])c1-c1cc(NC[C@@H](C)c2cccc3c(C(=O)NC)ccnc23)ncn1 + CC[C@@]1(O)C(=O)OCc2c1cc1n(c2=O)Cc2cc3c(CN(C)C)c(O)ccc3nc2-1
Found: 1.74%

Lookup: Another compound to look at: COc1ccc([C@@H](O)c2cc(-c3ncnc4cc(N5CCOCC5)ccc34)c(F)cc2Cl)nn1 + CC[C@@]1(O)C(=O)OCc2c1cc1n(c2=O)Cc2cc3c(CN(C)C)c(O)ccc3nc2-1
Found: 1.31%

Lookup: Please answer likewise for CC1COCCN1c1cc(-c2ccnn2C)c2ccnc(-c3ccn[nH]3)c2n1 (stereo unspecified) + CC[C@@]1(O)C(=O)OCc2c1cc1n(c2=O)Cc2cc3c(CN(C)C)c(O)ccc3nc2-1
Found: 0.56%

Lookup: Try the compound COc1cc(C)[nH]c(=O)c1CN1CCc2c(Cl)cc(C(OC)C3COC3)c(Cl)c2C1=O (stereo unspecified) + CC[C@@]1(O)C(=O)OCc2c1cc1n(c2=O)Cc2cc3c(CN(C)C)c(O)ccc3nc2-1
Found: 1.12%

Lookup: What do you get for CC(C)n1c(=O)n(C)c2cnc3cc(F)c(-c4ccc(OCCCN5CCCCC5)nc4)cc3c21 + CC[C@@]1(O)C(=O)OCc2c1cc1n(c2=O)Cc2cc3c(CN(C)C)c(O)ccc3nc2-1 ?
Found: 1.06%

Lookup: Consider next the compound Cc1cc(C)c(CNC(=O)c2cc(-c3ccc(CN4CCOCC4)cc3)cc3c2cnn3C2CCCC2)c(=O)[nH]1 + CC[C@@]1(O)C(=O)OCc2c1cc1n(c2=O)Cc2cc3c(CN(C)C)c(O)ccc3nc2-1 in the same way.
Found: 1.4%

====

test system: NCI-H841 complex tumor spheroid viability; experiment: Anticancer human tumor NCI-H841 cell line growth inhibition; details: second compound 0.000949 µM; first compound 0.0949 µM; hits give low values;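 also: spheroids exposed to compounds for 7 days before readout; 100% = DMSO vehicle control wells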
Provide the reported viability, T/C of each item.
Answer in %, number only, no unit symbol.

Lookup: Which viability, T/C reading was recorded for the compound CNCc1ccc(-c2cc(-c3nc(-c4ccc(S(=O)(=O)C(C)C)cc4)cnc3N)on2)cc1 + COc1cc2c(cc1O)CCNC21CSC2c3c(OC(C)=O)c(C)c4c(c3C(COC1=O)N1C(O)C3Cc5cc(C)c(OC)c(O)c5C(C21)N3C)OCO4 ?
Found: 1.25

Lookup: Next compound up: Cn1ncnc1[C@H]1c2n[nH]c(=O)c3cc(F)cc(c23)N[C@@H]1c1ccc(F)cc1 + COc1cc2c(cc1O)CCNC21CSC2c3c(OC(C)=O)c(C)c4c(c3C(COC1=O)N1C(O)C3Cc5cc(C)c(OC)c(O)c5C(C21)N3C)OCO4
Found: 2.75

Lookup: Entry to check: O=C(c1cc(Cc2n[nH]c(=O)c3ccccc23)ccc1F)N1CCN(C(=O)C2CC2)CC1 + COc1cc2c(cc1O)CCNC21CSC2c3c(OC(C)=O)c(C)c4c(c3C(COC1=O)N1C(O)C3Cc5cc(C)c(OC)c(O)c5C(C21)N3C)OCO4
Found: 3.77

Lookup: Also Cc1sc2c(c1C)C(c1ccc(Cl)cc1)=NC(CC(=O)Nc1ccc(O)cc1)c1nnc(C)n1-2 (centres undefined) + COc1cc2c(cc1O)CCNC21CSC2c3c(OC(C)=O)c(C)c4c(c3C(COC1=O)N1C(O)C3Cc5cc(C)c(OC)c(O)c5C(C21)N3C)OCO4 , if possible.
Found: 2.06

====

system: NCI-H841 complex tumor spheroid viability; assay: Anticancer human tumor NCI-H841 cell line growth inhibition; details: second compound 1 µM; first compound 0.1 µM; hits give low values;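 also: spheroids exposed to compounds for 7 days before readout; 100% = DMSO vehicle control wells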
Criterion: viability, T/C strictly less than 90%. Met: class 1. Not met: class 0.

Lookup: Decide: viability, T/C of CC(C)n1c(=O)n(C)c2cnc3cc(F)c(-c4ccc(OCCCN5CCCCC5)nc4)cc3c21 + Cn1nnc2c(C(N)=O)ncn2c1=O strictly below 90%?
Found: class 0

Lookup: Another compound to check: CC1COCCN1c1cc(-c2ccnn2C)c2ccnc(-c3ccn[nH]3)c2n1 (stereo unspecified) + Cn1nnc2c(C(N)=O)ncn2c1=O
Found: class 1

Lookup: // repeat for Cc1cc(C)c(CNC(=O)c2cc(-c3ccc(CN4CCOCC4)cc3)cc3c2cnn3C2CCCC2)c(=O)[nH]1 + Cn1nnc2c(C(N)=O)ncn2c1=O and report
Found: class 0

Lookup: Next: COc1cc(C)[nH]c(=O)c1CN1CCc2c(Cl)cc(C(OC)C3COC3)c(Cl)c2C1=O (stereo unspecified) + Cn1nnc2c(C(N)=O)ncn2c1=O
Found: class 1

Lookup: Query COc1ccc([C@@H](O)c2cc(-c3ncnc4cc(N5CCOCC5)ccc34)c(F)cc2Cl)nn1 + Cn1nnc2c(C(N)=O)ncn2c1=O next
Found: class 0

Lookup: Check [2H]c1nc(C)nc([2H])c1-c1cc(NC[C@@H](C)c2cccc3c(C(=O)NC)ccnc23)ncn1 + Cn1nnc2c(C(N)=O)ncn2c1=O too.
Found: class 0
